- Tested on: Ps. aeruginosa AK 109
- Assay Method Text: in vitro antibacterial activity, agar plate dilution method (MIC)
- Format: cell-based, Pseudomonas aeruginosa
- Test Parameters: Pseudomonas aeruginosa, AK109, 16 h, read-out: Minimum Inhibitory Concentration (MIC)
Readout Kind: MIC

I'm curious: which MIC was measured for Nc1nc(/C(=N/OCc2ccccc2)C(=O)N[C@@H]2C(=O)N3C(C(=O)O)=C(CSc4nnc(-c5ccc(O)c(O)c5)s4)CS[C@H]23)cs1 tested on Ps. aeruginosa AK 109?
0.39 µg/mL

====

- Test system: A. calcoaceticus No. 4
- Assay Method Text: in vitro antibacterial activity, agar plate dilution method (MIC)
- Format: cell-based, Acinetobacter calcoaceticus
- Test Parameters: Acinetobacter calcoaceticus, NO.4, 16 h, A. calcoaceticus No. 4; 10^6 CFU/ml; read-out: Minimum Inhibitory Concentration (MIC)
Readout Kind: MIC (µg/mL)
Field format: number, assumed µg/mL, no unit text.

Reference set (5 entries):
>  <Compound>
CO/N=C(\C(=O)N[C@@H]1C(=O)N2C(C(=O)O)=C(CSc3nnc(-c4ccc(O)cc4)s3)CS[C@H]12)c1csc(N)n1 [compound 7, reference compound]

>  <MIC, µg/mL>
1.56

$$$$
>  <Compound>
CO/N=C(\C(=O)N[C@@H]1C(=O)N2C(C(=O)O)=C(CSc3nnc(-c4ccc(O)cc4)o3)CS[C@H]12)c1csc(N)n1 [compound 2, reference compound]

>  <MIC, µg/mL>
50

$$$$
>  <Compound>
CC(C)(ON=C(C(=O)NC1C(=O)N2C(C(=O)O)=C(CSc3nc(-c4ccc(O)c(O)c4)cs3)CSC12)c1csc(N)n1)C(=O)O (stereo not drawn)

>  <MIC, µg/mL>
0.2

$$$$
>  <Compound>
CC(=O)Oc1ccc(-c2nc(SCC3=C(C(=O)O)N4C(=O)C(NC(=O)C(=NOC(C)(C)C(=O)O)c5csc(N)n5)C4SC3)sc2CC(=O)O)cc1OC(C)=O (stereo not drawn)

>  <MIC, µg/mL>
0.2

$$$$
>  <Compound>
CO/N=C(\C(=O)N[C@@H]1C(=O)N2C(C(=O)O)=C(CSc3nnc(-c4ccc(O)c(O)c4)s3)CS[C@H]12)c1csc(N)n1

>  <MIC, µg/mL>
0.2

$$$$

Fill in the recorded MIC for this compound, with A. calcoaceticus No. 4 as test system: Nc1nc(/C(=N/OC2(C(=O)O)CC2)C(=O)N[C@@H]2C(=O)N3C(C(=O)O)=C(CSc4nnc(-c5ccc(O)c(O)c5)o4)CS[C@H]23)cs1
0.05

Lookup: MIC / A. calcoaceticus No. 4 / CC(C)(O/N=C(\C(=O)N[C@@H]1C(=O)N2C(C(=O)O)=C(CSc3nc(C(=O)O)c(-c4ccccc4)s3)CS[C@H]12)c1csc(N)n1)C(=O)O [compound 14, reference compound]
50

Lookup: MIC / A. calcoaceticus No. 4 / CC(C)(O/N=C(\C(=O)N[C@@H]1C(=O)N2C(C(=O)O)=C(CSc3nc(-c4ccc(O)cc4)cs3)CS[C@H]12)c1csc(N)n1)C(=O)O [compound 12, reference compound]
100

Give MIC (A. calcoaceticus No. 4) of the following compound: Nc1nc(/C(=N/OC(C(=O)O)c2ccccc2)C(=O)N[C@@H]2C(=O)N3C(C(=O)O)=C(CSc4nnc(-c5ccc(O)c(O)c5)o4)CS[C@H]23)cs1 (stereo partly drawn) [Ex. 15]
0.05

Quick check: MIC on A. calcoaceticus No. 4, item Nc1nc(/C(=N/Oc2ccccc2)C(=O)N[C@@H]2C(=O)N3C(C(=O)O)=C(CSc4nnc(-c5ccc(O)c(O)c5)o4)CS[C@H]23)cs1 ?
0.2
